Molecular target: T1, AMHR-II/Fc fusion protein (human, UniProt Q16671 18-149, limits assumed)
T1 construct: also called AMHR-II recombinant receptor expressed in the form of fusion protein with a region Fc; recombinant target; not shown: Fc region
T1 sequence (Q16671 18-149 limits assumed): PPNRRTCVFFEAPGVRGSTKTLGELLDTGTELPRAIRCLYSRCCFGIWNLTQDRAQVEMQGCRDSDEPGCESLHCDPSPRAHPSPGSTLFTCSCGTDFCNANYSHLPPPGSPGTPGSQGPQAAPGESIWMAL
Assay: phage-scFv ELISA on AMHRII-Fc; mean of at least four values, standard deviation in parentheses
observationType: Ratio AB invention/humanized 12G4
Form rule: numeric answer, no unit written next to it.

What Ratio AB invention/humanized 12G4 value was documented for this binder, 6A_80 (mutated huLFB112 phage-scFv clone) (scFv, V domains shown, scFv on M13 phage, tested as culture supernatant; Q62E: TAG codon suppressed, translated to E in E. coli XL1-blue; not shown: The 15-residue scFv linker (positions 116-130 of the scFv numbering) and the M13 phage display partner) VH: QVQLVQSGAEVKKPGASVKVSCKVSGYTFTSYHIHWVRQAPGQRLEWMGWIYPGDDSTKYSEKFQGRVTITRDTSASTAYMELSSLRSEDTAVYYCTRGDRFAYWGQGTLVTVSS VL: DIQMTQSPSTLSASVGDRVTITCRASSSVRYIAWYQQKPGKAPKLLIYSTSSLESGVPSRFSGSGSGTEFTLTISSLQPDDFATYYCLQWSSYPWTFGGGTKVEIK ?
1.5
